Cited source: ChEMBL document CHEMBL1921685

- experimental.protocol: Cmax in rat at 10 mg/kg, po
- Assay type: ADME, organism-based
- Design: dose 10 mg/kg, route oral
- setup.conditions: in vivo
observation.type: Cmax
I'd appreciate it if you wrote the number followed by its unit.

**Query** What Cmax value was documented for this compound, O=c1[nH]ccc2c(Cc3nnc4ccc(-c5ccccc5)nn34)cccc12 ?
**Result** 300 ng/mL

====

- experimental.protocol: AUC in rat at 10 mg/kg, iv
- Format: ADME, organism-based
- Set-up: dose 10 mg/kg, route intravenous
- setup.conditions: plasma
observation.type: AUC (ng·h/mL)
Write it as a number; the unit ng·h/mL goes unstated.

**Query** What AUC value was documented for this molecule, O=c1[nH]ccc2c(Cc3nnc4ccc(-c5ccccc5)nn34)cccc12 ?
**Result** 11200
